target: Cytochrome P450 2C19 (Homo sapiens) (UniProt P33261); assay: blockers of cytochrome P450 2C19 activity – biochemical, luminescence, ADME assay, primary screen (AID 778); details: CYP2C19 Supersomes, luciferin-H EGE luminescence, 30 min; at 5 µM; hits give high values;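 note: plate controls were negative control wells for no effect and 2.5 mM tranylcypromine positive control for full effect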
Sequence (P33261 whole entry, looked up): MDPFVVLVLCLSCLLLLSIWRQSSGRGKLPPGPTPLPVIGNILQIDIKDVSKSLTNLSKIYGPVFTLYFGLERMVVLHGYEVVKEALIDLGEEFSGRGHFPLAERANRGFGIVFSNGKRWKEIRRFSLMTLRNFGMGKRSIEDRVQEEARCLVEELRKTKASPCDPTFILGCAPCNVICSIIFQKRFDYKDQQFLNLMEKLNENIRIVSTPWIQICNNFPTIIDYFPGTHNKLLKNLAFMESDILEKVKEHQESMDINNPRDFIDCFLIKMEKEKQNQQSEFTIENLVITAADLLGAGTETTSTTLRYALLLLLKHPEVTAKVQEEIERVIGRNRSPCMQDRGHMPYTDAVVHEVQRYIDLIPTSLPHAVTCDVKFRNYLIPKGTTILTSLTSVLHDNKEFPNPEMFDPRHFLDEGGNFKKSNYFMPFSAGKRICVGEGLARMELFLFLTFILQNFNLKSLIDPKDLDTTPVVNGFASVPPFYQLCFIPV
In all, about 96,000 compounds went through this assay and about 20,000 (21%) were called active. Only a sample is shown.
Measured inhibition of individual entries
reportedMetric: inhibition

- compound: "Cc1csc2ncc(C(=O)N(Cc3ccccc3)c3ccccn3)c(=O)n12"
  reportedMetric: "inhibition"
  observedResult: "0.8% (inactive)"
- compound: "O=c1c(F)cn(C2CCCO2)c(=O)n1Cc1ccccc1Cl (centres undefined)"
  reportedMetric: "inhibition"
  observedResult: "36.8% (inactive)"
- compound: "O=C1CCCC2=C1C(c1ccccc1)n1c(s/c(=C/c3cccc(F)c3)c1=O)=N2 (centres undefined)"
  reportedMetric: "inhibition"
  observedResult: "34.6% (inactive)"
- compound: "O=C(Cn1cnc2c(nnn2-c2ccccc2)c1=O)N1CCC(Cc2ccccc2)CC1"
  reportedMetric: "inhibition"
  observedResult: "43.2% (inactive)"
